Type: biochemical
Settings: pH 7.5
Tick 1 (yes) if DON [ppm] is 3 ppm or greater. Tick 0 (no) if DON [ppm] is less than 3 ppm.

[Zn+2] [Zn^2+]: 0 (no)

// next entry
Lookup: Check if DON [ppm] >= 3 ppm (inclusive). Item: COS(=O)(=O)[O-].C[n+]1c2ccccc2nc2ccccc21 [PMS, phenazine methosulphate]
Found: 0 (no)

----------
DON [ppm] values for the compounds below.
Assay type: biochemical
Conditions: pH 7.5
Give the value in ppm but do not write ppm after it.

Some compounds with recorded DON [ppm]:
COC1=C(OC)C(=O)C(CC=C(C)C)=C(C)C1=O [coenzyme Q1]: 8.58
[Fe+2] [Fe^2+]: 2.17
[Mg+2] [Mg^2+]: 1.90
N[C@@H](CCCCNC1=CC(=O)C(=O)C=C1C[C@H](N)C(=O)O)C(=O)O [LTQ, lysine tyrosylquinone]: 2.04
[Ca+2] [Ca^2+]: 1.98

The recorded DON [ppm] for entry O=C(O)c1cc(C(=O)O)c2c(n1)C(=O)C(=O)c1cc(C(=O)O)[nH]c1-2 [PCC, pyrroloquinoline quinone] equals 1.94

The recorded DON [ppm] for entry [Mn+2] [Mn^2+] equals 2.57

The recorded DON [ppm] for entry [Cu+2] [Cu^2+] equals 2.61

The recorded DON [ppm] for entry CN(C)c1ccc2nc3ccc(=[N+](C)C)cc-3sc2c1 [methylene blue] equals 6.88
